Where do the numbers come from? From the supplement of paper PMC10567573.

B1: UFD1L (parent)
chain: EAGGRFVAFSGEGQSLRKKGRKP

# Variants of: B1
# MEASUREMENT PROTOCOL: protein stability index of a GFP-peptide fusion (GPS, HEK-293T) (PSI 1-6); higher = more stable;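 note: lentivirally expressed fusions sorted by FACS into six bins by GFP to DsRed ratio, PSI derived from sequencing read proportions per bin multiplied by bin number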
# SETTINGS: c terminus: native
ASSAY READOUT: protein stability index

> print(dat)
    var  experimental.value
1   V7C                2.03
2  R17T                2.03
3  R21N                5.27
4   A2D                3.92
5   F6M                1.81
6  K18R                1.48
7   R5Y                1.48
8   F9P                3.64
9   A2P                2.55
